Listed next: entries and their corresponding Post-emergence action against ALOMY in %.
System: Alopecurus myosuroides (ALOMY)
Test: Post-emergence herbicidal action against ALOMY
Assay type: in vivo
Details: 80 g/ha, visual rating about 3 weeks after treatment vs untreated controls (100% = plants have died, 0% = like control plants)
readout.name: Post-emergence action against ALOMY in % (%)

INSERT INTO measurements (compound, unit_abbreviation, experimental_result) VALUES
  ('COC(=O)C1CCCN1C(=O)COc1nn(-c2ccccn2)c(-c2ccc(F)nc2)c1Br (centres unmarked)', '%', 80),
  ('COC(=O)[C@@H](C)NC(=O)COc1nn(-c2ccccn2)c(-c2ccnc(F)c2)c1Br', '%', 90),
  ('COC(=O)[C@@H](C)Oc1nn(-c2ncccc2F)c(-c2ccc(F)nc2)c1C(F)(F)F', '%', 100),
  ('COC(=O)CCOC(=O)[C@@H](C)Oc1nn(-c2ccccn2)c(-c2cncc(F)c2)c1Br', '%', 100),
  ('COC(=O)[C@@H](C)Oc1nn(-c2ncccc2F)c(-c2cncc(F)c2)c1C1CC1', '%', 90);
